These data points were gathered from patent US10907134B2.

Test system: CHO-K1 cells
Test: Luminescence activity of KAZ mutants expressed in animal culture cells without secretional signal peptide sequence
Assay type: cell-based, Chinese hamster
Conditions: vectors without a secretion signal; CHO-K1; coelenterazine
Protocol: Chinese hamster ovary cell line CHO-K1 was cultured in Ham's F-12 medium (manufactured by Wako Pure Chemical Industries, Ltd.) supplemented with 10% (v/v) fetal bovine serum (manufactured by Biowest Inc.). […] A luminescence reaction was started by adding 5 μL of the culture media and cell extracts obtained in EXAMPLE 10 to 100 μL of 30 mM Tris-HCl (pH 7.6)-10 mM EDTA (manufactured by Wako Pure Chemical Industries, Ltd.) containing 0.5 μg of coelenterazine (manufactured by INC Corp.). […]
metric: Luminescence activity in the cell extracts, fold higher than wild KAZ (fold)
Please respond with the number in fold and leave the unit unwritten.

Given item KAZ-V44I-Y138I: KAZ mutant with two amino acid substitutions V44I and Y138I, SEQ ID NO: 12 (protein) FTLADFVGDWQQTAGYNQDQVLEQGGLSSLFQALGVSVTPIQKIVLSGENGLKADIHVIIPYEGLSGFQMGLIEMIFKVVYPVDDHHFKIILHYGTLVIDGVTPNMIDYFGRPYPGIAVFDGKQITVTGTLWNGNKIIDERLINPDGSLLFRVTINGVTGWRLCENILA , the value recorded as its Luminescence activity in the cell extracts, fold higher than wild KAZ is 15
